- test.target: JAK1 (recombinant purified GST-tagged catalytic domain) (Homo sapiens (Human))
- Sequence (P23458 875-1153): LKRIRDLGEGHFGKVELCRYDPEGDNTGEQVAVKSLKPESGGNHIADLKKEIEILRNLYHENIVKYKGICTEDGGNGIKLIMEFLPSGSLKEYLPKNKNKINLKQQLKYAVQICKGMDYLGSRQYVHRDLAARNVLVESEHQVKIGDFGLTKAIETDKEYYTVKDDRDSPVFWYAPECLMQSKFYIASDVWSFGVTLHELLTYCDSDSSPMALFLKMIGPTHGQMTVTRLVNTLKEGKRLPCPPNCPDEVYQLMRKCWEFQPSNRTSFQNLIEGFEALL
- assay.remarks: Jak Biochemical HTRF Assay (JAK1)
- study.conditions: [ATP] 31.8 μM
pIC50: −log10 of the molar value.
metric: pIC50

In [3]: df
Out[3]:
                                   compound  numeric_result
0  CN(C)S(=O)(=O)c1ccc(Nc2nn(C3(CC#N)CCN(S(=O)(=O)C4CC4)CC3)c3cc[nH]c(=O)c23)cc1           10.22
1  CC(C)(C)OC(=O)[C@@H]1CC[C@@](CC#N)(n2nc(Nc3ccc(S(=O)(=O)C4CC4)cc3)c3c(=O)[nH]ccc32)CO1 [Example 5-236]            9.92
2  N#CC[C@]1(n2nc(Nc3ccc(Cl)cc3)c3c(=O)[nH]ccc32)CC[C@H](Nc2ccccc2)CC1            8.77

[1] C[C@H]1CN(C(=O)OC(C)(C)C)CC[C@]1(CC#N)n1nc(Nc2ccc(S(C)(=O)=O)cc2)c2c(=O)[nH]ccc21 (racemic)
[2] COC(=O)N1CCC(CC#N)(n2nc(Nc3ccc(C(C)(O)C(F)(F)F)cc3)c3c(=O)[nH]ccc32)CC1 (single isomer, unassigned) [Example 5-142]
Req: Sorting by pIC50 in descending order, would 1 or 2 appear first? Respond using the label that marks the chosen record.
Resp: 2
(2: 9.89, 1: 9.64)

[I] Cc1cc(Nc2nn([C@]3(CC#N)CCCOC3)c3cc[nH]c(=O)c23)ccc1C(=O)N1CCCC[C@H]1C
[II] COC(=O)N1CCC(CC#N)(n2nc(Nc3ccc(S(=O)(=O)C(C)C)cc3)c3c(=O)[nH]ccc32)CC1
Req: Select the item whose pIC50 value is smaller, choosing between I and II . Respond using the label that marks the chosen record.
Resp: I

[1] Cc1cc(Nc2nn(C3(CC#N)CCN(c4cc(C(F)(F)F)ccn4)CC3)c3cc[nH]c(=O)c23)ccc1C(=O)N1CCC(F)(F)CC1
[2] CC(O)(c1ccc(Nc2nn([C@@]3(CC#N)CCCC[C@H]3F)c3cc[nH]c(=O)c23)cc1)C(F)(F)F (single isomer, unassigned) [Example 5-85]
Req: Sorting by pIC50 in descending order, would 1 or 2 appear first? Respond using the label that marks the chosen record.
Resp: 2
(2: 10.15, 1: 8.70)
